- System: β-galactosidase in CMV-LacZ C2C12 myotubes
- assay: CMV-LacZ secondary screen in C2C12 myotubes (β-Gal stabilizing assay)
- Assay type: cell-based, mouse
- settings: 5 uM; C2C12 CMV-LacZ myotubes; fold relative to DMSO
Let's look at some compounds and their measured CMV-LACZ in Myotubes, signal relative to DMSO.
Keep the answer to the number alone.

Solved cases below.
q: Fill in CMV-LACZ in Myotubes, signal relative to DMSO for O=CN1CCN(C(=O)CC(c2ccccc2)c2cc(Br)ccc2O)CC1 (centres unmarked) [MLS001000874-01] tested with β-galactosidase in CMV-LacZ C2C12 myotubes.
a: 1.1124

q: Fill in CMV-LACZ in Myotubes, signal relative to DMSO for CN(/C(=N/S(=O)(=O)c1cccs1)c1ccccc1)c1ccccc1 [MLS000582947-01] tested with β-galactosidase in CMV-LacZ C2C12 myotubes.
a: 0.9280

q: Fill in CMV-LACZ in Myotubes, signal relative to DMSO for COc1ccc(CNC(=O)C2CCCN(S(=O)(=O)c3c(C)noc3/C=C/N(C)C)C2)cc1 (centres unmarked) [MLS000925023-01] tested with β-galactosidase in CMV-LacZ C2C12 myotubes.
a: 1.1638

q: Fill in CMV-LACZ in Myotubes, signal relative to DMSO for Cc1ccc2c(c1)/C(=C/c1ccco1)C(=O)N2 [MLS000682750-01] tested with β-galactosidase in CMV-LacZ C2C12 myotubes.
a: 1.1285

Next item in the queue.
q: Fill in CMV-LACZ in Myotubes, signal relative to DMSO for Cc1ccsc1CN(C)CC(=O)Nc1ccc([N+](=O)[O-])cc1Cl [MLS001172822-01] tested with β-galactosidase in CMV-LacZ C2C12 myotubes.
a: 1.2505
